- Tested on: SU-DHL-4 cells
- METHOD_NOTES: Inhibitory effect on cell viability in SU-DHL-4 cell line (Test Example 1)
- Assay type: cell-based, human
- CONDITIONS_USED: SU-DHL-4 (wild type) cells, 72 hours; calculated using the measurement results of test example 1; read-out: SU-DHL-4 WT IC50
pIC50: −log10 of the molar value.
# maps each entry to its pIC50
REPORTED_METRIC: pIC50

Cc1sc2c(c1C)C(c1ccc(Cl)cc1)=N[C@@H](CC(=O)NCCOCCOCCOCCOCCOCCOCCOCCNC(=O)C[C@@H]1N=C(c3ccc(Cl)cc3)c3c(sc(C)c3C)-n3c(C)nnc31)c1nnc(C)n1-2 [compound 2, reference compound]; 6.63
CCC(=O)N1c2ccccc2[C@H](Nc2ccc(Cn3cc(C(=O)Nc4ccc(N[C@@H]5C[C@H](C)N(C(=O)CC)c6ccccc65)cc4)nn3)cc2)C[C@@H]1C; 10.40
CCC(=O)N1c2ccccc2[C@H](Nc2ccc(NC(=O)N3CCN(C(=O)C4CCC(N[C@@H]5C[C@H](C)N(C(=O)CC)c6ccccc65)CC4)CC3)cc2)C[C@@H]1C (some centres unmarked); 9.42
CCC(=O)N1c2ccccc2[C@H](Nc2ccc(C(=O)N3CC(C(=O)N[C@H]4CC[C@H](N[C@@H]5C[C@H](C)N(C(=O)CC)c6ccccc65)CC4)C3)cc2)C[C@@H]1C; 9.52
CCC(=O)N1c2ccccc2[C@H](Nc2ccc(C(=O)NCCCNC(=O)c3ccc(C4=N[C@@H](CC(=O)OC5CCC(O)CC5)c5nnc(C)n5-c5sc(C)c(C)c54)cc3)cc2)C[C@@H]1C (some centres unmarked) [Compound 13d]; 9.28
CCC(=O)N1c2ccccc2[C@H](Nc2ccc(NC(=O)CNC(=O)N[C@H]3CC[C@H](N[C@@H]4C[C@H](C)N(C(=O)CC)c5ccccc54)CC3)cc2)C[C@@H]1C; 9.54
CCC(=O)N1c2ccccc2[C@H](Nc2ccc(NC(=O)C#CCNC(=O)C3CCC(N[C@@H]4C[C@H](C)N(C(=O)CC)c5ccccc54)CC3)cc2)C[C@@H]1C (relative stereo); 11.10
CCC(=O)N1c2ccccc2[C@H](NCCCCC(=O)NCc2cn(-c3ccc(N[C@@H]4C[C@H](C)N(C(=O)CC)c5ccccc54)cc3)nn2)C[C@@H]1C (relative stereo) [Compound 12f]; 9.62
CCC(=O)N1c2ccccc2[C@H](Nc2ccc(NC(=O)CCCC(=O)Nc3cccc(Oc4ccc(NS(=O)(=O)CC)cc4-c4cn(C)c(=O)cc4OC)c3)cc2)C[C@@H]1C [Compound 16j]; 9.30
CCC(=O)N1c2ccccc2[C@H](Nc2ccc(C(=O)NCCNS(=O)(=O)c3ccc(N[C@@H]4C[C@H](C)N(C(=O)CC)c5ccccc54)cc3)cc2)C[C@@H]1C; 8.38
CCC(=O)N1c2ccccc2[C@H](Nc2ccc(NC(=O)CCCC(=O)Nc3ccc(Cn4c(C(=O)OCCN(C)C)cc5c4CCCC5=O)cc3)cc2)C[C@@H]1C [Compound 15a]; 9.55
CCC(=O)N1c2ccccc2[C@H](Nc2ccc(NC(=O)CCCC(=O)NC3CCC(Cn4cc(-c5c(C)noc5C)ccc4=O)CC3)cc2)C[C@@H]1C (some centres unmarked) [Compound 16p]; 9.57
CCC(=O)N1c2ccccc2[C@H](Nc2ccc(NC(=O)CCCC(=O)NC3CCC(N[C@@H]4C[C@H](C)N(C(=O)CC)c5ccccc54)CC3)cc2)C[C@@H]1C (some centres unmarked); 9.28
CCC(=O)N1c2ccccc2[C@H](N[C@H]2CC[C@H](NC(=O)C#CCNC(=O)[C@H]3CC[C@H](N[C@@H]4C[C@H](C)N(C(=O)CC)c5ccccc54)CC3)CC2)C[C@@H]1C (relative stereo); 9.12
CCNC(=O)C[C@@H]1N=C(c2ccc(SCCCCSc3ccc(C4=N[C@@H](CC(=O)NCC)c5nnc(C)n5-c5ccc(OC)cc54)cc3)cc2)c2cc(OC)ccc2-n2c(C)nnc21 [compound 1, reference compound]; 6.66
CCC(=O)N1c2ccccc2[C@H](Nc2ccc(-c3nnc(CNC(=O)[C@H]4CC[C@H](N[C@@H]5C[C@H](C)N(C(=O)CC)c6ccccc65)CC4)o3)cc2)C[C@@H]1C; 10.05
CCC(=O)N1c2ccccc2[C@H](Nc2ccc(C(=O)NCCCNC(=O)c3ccc(C4=N[C@@H](CC(=O)OCCCOC)c5nnc(C)n5-c5sc(C)c(C)c54)cc3)cc2)C[C@@H]1C [Compound 13h]; 9.52

Reference source for all entries: patent US20220378923A1
